target-of-assay: human TAS1R2-WT/TAS1R3-A735T (Homo sapiens, UniProt Q7RTX0+Q8TE23, A735T)
Construct: expressed in transfected cells; host or cells: HEK293T stably expressing Gα16gust44
Sequence (Q8TE23 20-839): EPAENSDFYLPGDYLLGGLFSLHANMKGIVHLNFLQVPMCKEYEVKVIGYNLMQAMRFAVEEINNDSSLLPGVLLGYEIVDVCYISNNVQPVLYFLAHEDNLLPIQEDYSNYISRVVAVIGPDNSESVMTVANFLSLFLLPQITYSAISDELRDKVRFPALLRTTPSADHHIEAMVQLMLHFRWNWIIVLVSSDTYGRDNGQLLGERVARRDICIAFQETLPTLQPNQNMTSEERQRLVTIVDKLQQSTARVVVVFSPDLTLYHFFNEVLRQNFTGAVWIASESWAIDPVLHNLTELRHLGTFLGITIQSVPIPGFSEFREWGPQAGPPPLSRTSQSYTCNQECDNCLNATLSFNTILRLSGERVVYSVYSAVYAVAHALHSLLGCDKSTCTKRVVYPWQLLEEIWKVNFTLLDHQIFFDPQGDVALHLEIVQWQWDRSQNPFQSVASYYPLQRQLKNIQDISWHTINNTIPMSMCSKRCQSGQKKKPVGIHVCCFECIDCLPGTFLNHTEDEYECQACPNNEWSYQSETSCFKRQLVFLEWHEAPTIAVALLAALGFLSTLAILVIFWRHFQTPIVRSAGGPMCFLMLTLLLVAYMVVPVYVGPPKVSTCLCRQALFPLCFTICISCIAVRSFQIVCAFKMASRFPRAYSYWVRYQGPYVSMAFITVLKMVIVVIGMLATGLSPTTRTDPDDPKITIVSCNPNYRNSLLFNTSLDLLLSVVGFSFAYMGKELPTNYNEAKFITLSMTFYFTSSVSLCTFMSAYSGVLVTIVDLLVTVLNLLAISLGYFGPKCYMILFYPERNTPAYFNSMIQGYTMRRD
Sequence (Q7RTX0 21-852 A735T): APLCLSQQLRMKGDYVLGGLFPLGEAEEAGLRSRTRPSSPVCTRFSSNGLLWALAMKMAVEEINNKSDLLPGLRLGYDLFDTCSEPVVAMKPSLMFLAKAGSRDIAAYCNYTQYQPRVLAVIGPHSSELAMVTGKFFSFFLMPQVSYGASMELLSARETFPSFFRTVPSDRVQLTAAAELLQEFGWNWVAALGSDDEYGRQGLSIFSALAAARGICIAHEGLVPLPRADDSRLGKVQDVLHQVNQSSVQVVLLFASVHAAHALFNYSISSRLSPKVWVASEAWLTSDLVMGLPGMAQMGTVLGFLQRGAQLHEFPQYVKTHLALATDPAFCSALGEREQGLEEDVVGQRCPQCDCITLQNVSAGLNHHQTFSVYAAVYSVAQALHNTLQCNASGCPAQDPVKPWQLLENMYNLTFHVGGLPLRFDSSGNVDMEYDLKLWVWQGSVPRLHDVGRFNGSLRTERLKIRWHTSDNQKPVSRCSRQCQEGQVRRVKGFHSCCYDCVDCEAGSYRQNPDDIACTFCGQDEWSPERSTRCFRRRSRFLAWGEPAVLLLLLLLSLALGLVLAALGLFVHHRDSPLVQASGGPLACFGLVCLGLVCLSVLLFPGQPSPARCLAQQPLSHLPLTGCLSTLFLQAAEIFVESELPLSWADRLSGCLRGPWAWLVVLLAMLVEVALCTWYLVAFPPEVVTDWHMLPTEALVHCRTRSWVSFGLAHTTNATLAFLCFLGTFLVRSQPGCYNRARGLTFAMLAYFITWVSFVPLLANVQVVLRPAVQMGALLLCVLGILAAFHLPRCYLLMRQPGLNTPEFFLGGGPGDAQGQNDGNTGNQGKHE
method: Calcium mobilisation assay, TAS1R2-WT with TAS1R3 variant A735T
Assay type: cell-based
Description: The coding sequences for TAS1R2 and TAS1R3 were commercially synthesised, and the human codon was optimised for expression in human cells. […] The HEK293T cells were kindly provided by Jay P. Slack (Givaudan Flavors Corporation; Cincinnati, OH, USA). […] The Ca^2+ changes were expressed as fractional changes in fluorescent light intensity: ΔF/F = (F − F0)/F0, where F was the fluorescent light intensity at each point, and F0 was the value of emitted fluorescent light prior to stimulus application. […]
# R1 = Variant EC50/WT EC50 values compiled below
Output spec: single numeric token, no unit.

Check the records and state R1 = Variant EC50/WT EC50 for CC1=CC(=O)NS(=O)(=O)O1
1.1

Check the records and state R1 = Variant EC50/WT EC50 for C=C1C[C@@]23CC[C@H]4[C@@](C)(CCC[C@@]4(C)C(=O)O[C@@H]4O[C@H](CO)[C@@H](O)[C@H](O[C@@H]5O[C@H](CO)[C@@H](O)[C@H](O)[C@H]5O)[C@H]4O[C@@H]4O[C@H](CO)[C@@H](O)[C@H](O)[C@H]4O)[C@@H]2CC[C@]1(O[C@@H]1O[C@H](CO)[C@@H](O)[C@H](O[C@@H]2O[C@H](CO)[C@@H](O)[C@H](O)[C@H]2O)[C@H]1O[C@@H]1O[C@H](CO)[C@@H](O)[C@H](O)[C@H]1O)C3 [Rebaudioside M, rebaudioside M]
0.6

Check the records and state R1 = Variant EC50/WT EC50 for OC[C@H]1O[C@H](O[C@]2(CCl)O[C@H](CCl)[C@@H](O)[C@@H]2O)[C@H](O)[C@@H](O)[C@H]1Cl
1.4

Check the records and state R1 = Variant EC50/WT EC50 for C[C@H](CC[C@@H](O[C@@H]1O[C@H](CO[C@@H]2O[C@H](CO)[C@@H](O)[C@H](O)[C@H]2O)[C@@H](O)[C@H](O)[C@H]1O[C@@H]1O[C@H](CO)[C@@H](O)[C@H](O)[C@H]1O)C(C)(C)O)[C@H]1CC[C@@]2(C)[C@@H]3CC=C4[C@@H](CC[C@H](O[C@@H]5O[C@H](CO[C@@H]6O[C@H](CO)[C@@H](O)[C@H](O)[C@H]6O)[C@@H](O)[C@H](O)[C@H]5O)C4(C)C)[C@]3(C)[C@H](O)C[C@]12C [Mogroside V, mogroside V]
0.9

---

target-of-assay: human TAS1R2-WT/TAS1R3-F749S (Homo sapiens, UniProt Q7RTX0+Q8TE23, F749S)
Construct: expressed in transfected cells; host or cells: HEK293T stably expressing Gα16gust44
Sequence (Q8TE23 20-839): as the sequence (Q8TE23 20-839) above
Sequence (Q7RTX0 21-852 F749S): as the sequence (Q7RTX0 21-852 A735T) above, with T715A, F729S counted along it
method: Calcium mobilisation assay, TAS1R2-WT with TAS1R3 variant F749S
Format: cell-based
value-type: R1 = Variant EC50/WT EC50

Solved cases (3 shown):
CC1=CC(=O)NS(=O)(=O)O1
0.7
C=C1C[C@@]23CC[C@H]4[C@@](C)(CCC[C@@]4(C)C(=O)O[C@@H]4O[C@H](CO)[C@@H](O)[C@H](O[C@@H]5O[C@H](CO)[C@@H](O)[C@H](O)[C@H]5O)[C@H]4O[C@@H]4O[C@H](CO)[C@@H](O)[C@H](O)[C@H]4O)[C@@H]2CC[C@]1(O[C@@H]1O[C@H](CO)[C@@H](O)[C@H](O[C@@H]2O[C@H](CO)[C@@H](O)[C@H](O)[C@H]2O)[C@H]1O[C@@H]1O[C@H](CO)[C@@H](O)[C@H](O)[C@H]1O)C3 [Rebaudioside M, rebaudioside M]
1.8
C[C@H](CC[C@@H](O[C@@H]1O[C@H](CO[C@@H]2O[C@H](CO)[C@@H](O)[C@H](O)[C@H]2O)[C@@H](O)[C@H](O)[C@H]1O[C@@H]1O[C@H](CO)[C@@H](O)[C@H](O)[C@H]1O)C(C)(C)O)[C@H]1CC[C@@]2(C)[C@@H]3CC=C4[C@@H](CC[C@H](O[C@@H]5O[C@H](CO[C@@H]6O[C@H](CO)[C@@H](O)[C@H](O)[C@H]6O)[C@@H](O)[C@H](O)[C@H]5O)C4(C)C)[C@]3(C)[C@H](O)C[C@]12C [Mogroside V, mogroside V]
2.1

Now take the following molecule into account.
Check the records and state R1 = Variant EC50/WT EC50 for COC(=O)[C@H](Cc1ccccc1)NC(=O)[C@H](CC(=O)O)NCCC(C)(C)C
1.5
